Values from ChEMBL document CHEMBL1122970

Provide the recorded ID50 for the entries that follow.
Test system: P388
Test: In vitro antitumor activity against P388 cell line in mice.
Type: functional, Mus musculus
Your answer is read as µM, so omit the unit and give the number.

Ask: May I ask what ID50 has been recorded for Cl.Nc1nc(=O)n([C@@H]2O[C@H](CO)[C@@H](O)[C@H]2O)cc1F ?
Reply: 3

Ask: May I ask what ID50 has been recorded for N.Nc1nc(=O)n([C@@H]2O[C@@H]3CO[PH](O)(O)O[C@H]3[C@H]2O)cc1F ?
Reply: 0.31

Ask: May I ask what ID50 has been recorded for Nc1ccn([C@@H]2O[C@H](CO)[C@@H](O)[C@@H]2O)c(=O)n1 ?
Reply: 1.2

Ask: May I ask what ID50 has been recorded for Nc1nc(=O)n([C@@H]2O[C@H](COP(=O)(O)O)[C@@H](O)[C@H]2O)cc1F ?
Reply: 3.1
